Documented pIC50 across a set of molecules
target system: first bromodomain (BrD1) of human BRD4 (Homo sapiens, UniProt O60885)
Construct: the first bromodomain (BrD1) of human BRD4; poly-His (cleaved yes)
experiment description: Fluorescence anisotropy binding assay (competition with FITC-labeled MS417 probe)
condition context: FITC-MS417 probe 80 nM, PBS pH 7.4, 1 hour, 25° C., read-out: BRD4_1 IC50
pIC50: −log10 of the molar value.

Recorded results for 2 molecules are shown here.
> print(dat)
                                   molecule        result
1  CC1=C(N[C@H]2CC[C@H](C(=O)Nc3ccccc3)CC2)CCC1=O [Example 04-26]        < 5.00
2  COc1cccc(NC(=O)c2ccc(NC3=C(C)C(=O)CC3)cc2OC)c1 [Example 04-70]  5.00 to 6.00

Fill in pIC50 for record COc1cc(C(=O)Nc2cccc3ccccc23)ccc1NC1=C(C)C(=O)CC1 [Example 04-55]
5.00 to 6.00

Given CC1=C(Nc2ccc(C(=O)Nc3ccccc3)cc2C)CCC1=O [Example 04-80] , respond with its pIC50.
5.00 to 6.00

Look up pIC50 of COc1ccc(NC(=O)c2ccc(NC3=C(C)C(=O)CC3)c(I)c2)cc1 [Example 04-104] and report it.
> 6.00

Tell me its pIC50 given CC1=C(Nc2ccc(NC(=O)C3CCCCC3)cc2Cl)CCCC1=O [Example 05-49] as the entry.
> 6.00

In one line, give reported pIC50 of the entry CC1=C(Nc2cccc(CC(=O)O)c2)CCCC1=O [Example 01-37] .
< 5.00
